# TARGET ENTITY: Short transient receptor potential channel 4 (Mus musculus)
# Sequence (Q9QUQ5 whole entry): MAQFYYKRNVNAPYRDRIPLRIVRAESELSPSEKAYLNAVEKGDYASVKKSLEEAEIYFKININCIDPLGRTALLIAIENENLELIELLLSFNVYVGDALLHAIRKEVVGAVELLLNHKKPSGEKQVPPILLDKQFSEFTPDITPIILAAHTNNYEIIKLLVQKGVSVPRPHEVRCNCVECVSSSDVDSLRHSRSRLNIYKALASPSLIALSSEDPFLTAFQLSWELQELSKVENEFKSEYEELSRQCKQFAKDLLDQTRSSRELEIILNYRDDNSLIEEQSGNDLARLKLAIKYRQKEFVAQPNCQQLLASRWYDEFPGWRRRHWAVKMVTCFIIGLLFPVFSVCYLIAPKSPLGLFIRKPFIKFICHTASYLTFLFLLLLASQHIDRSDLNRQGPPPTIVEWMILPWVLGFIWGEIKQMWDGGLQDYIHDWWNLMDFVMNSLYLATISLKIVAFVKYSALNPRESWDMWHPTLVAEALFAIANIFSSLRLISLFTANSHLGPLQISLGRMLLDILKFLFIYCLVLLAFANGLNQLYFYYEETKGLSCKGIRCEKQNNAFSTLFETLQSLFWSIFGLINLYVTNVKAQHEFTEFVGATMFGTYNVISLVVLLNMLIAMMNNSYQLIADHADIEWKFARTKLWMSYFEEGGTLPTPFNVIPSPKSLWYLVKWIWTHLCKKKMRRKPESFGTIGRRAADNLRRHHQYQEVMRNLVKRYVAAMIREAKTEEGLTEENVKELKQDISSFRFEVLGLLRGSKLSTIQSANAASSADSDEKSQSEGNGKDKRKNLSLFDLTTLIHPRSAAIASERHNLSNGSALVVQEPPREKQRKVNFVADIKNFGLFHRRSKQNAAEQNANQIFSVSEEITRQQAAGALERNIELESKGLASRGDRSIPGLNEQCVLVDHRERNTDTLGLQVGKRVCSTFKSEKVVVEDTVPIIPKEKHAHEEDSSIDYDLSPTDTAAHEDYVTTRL
# PROTOCOL DESCRIPTION: mouse TRPC4 channel inhibitors, dose response, cell-based, HEK293 TRPC4/mu-opioid, Fluo-4 calcium (AID 434942);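 note: potency of inhibitors blocking the TRPC4 calcium response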
# Type: functional
The source made the active and inactive calls. The rule behind the calls is not given here.
Kindly supply the reported EC50 values for the records listed here.

• NS(=O)(=O)c1ccc(Nc2nc(-c3ccc(O)cc3O)cs2)cc1 = 1330 nM (active)
• CCN(CC)CC(=O)Nc1ccc(Cl)cc1C(=O)c1ccccc1 = 2370 nM (active)
• Cc1ccccc1OCC(O)Cn1c(=N)n(Cc2ccccc2)c2ccccc21 (configuration not stated) = 1060 nM (active)
• CN(C)CCCN(Cc1cc2cc3c(cc2nc1O)OCO3)C(S)=NCc1ccco1 = 421 nM (active)
• COc1ccccc1N(C(=O)c1snc(C(N)=O)c1N)C(C(=O)NC1CCCC1)c1ccc2ncccc2c1 (configuration not stated) = 2660 nM (active)
• CCC1CCCCN1Cc1nc2c(c(=O)n(C)c(=O)n2C)n1Cc1ccccc1 (configuration not stated) = 3760 nM (active)

Recall the reported EC50 of COc1ccc(CN2CCN(Cc3ccc(C(F)(F)F)cc3)CC2)c(OC)c1 when tested on Short transient receptor potential channel 4 (Mus musculus).
2660 nM (active)
